Provide the reported TGI of each item.
System: MDA-MB-231 breast
Test: NCI tumour cell line growth inhibition, 48 h

Find the recorded TGI belonging to N#CCCN(C(=O)Nc1ccccc1)[C@H]1CCCC[C@@H]1N(C(=O)Nc1ccccc1)c1ccccc1 and report it.
> 100 µM

Find the recorded TGI belonging to COc1cc(C2c3cc4c(cc3OC3(OC)COC(=O)C23)OCO4)cc(OC)c1OC(C)=O (stereo unspecified) and report it.
> 100 µM

Find the recorded TGI belonging to CCOC(=O)Nc1ccc(-c2nc(-c3cccc(OCCN4CCOCC4)c3)c(-c3ccnc(Br)c3)[nH]2)cc1 and report it.
> 100 µM

Find the recorded TGI belonging to O=C(O)[C@@H]1CCS(=O)(=O)N1 and report it.
> 100 µM

Find the recorded TGI belonging to COc1cc2c(C)cc(O)cc2c2cc(O)c(C)cc12 and report it.
19.2 µM

Find the recorded TGI belonging to COc1cc(NCc2ccc3nc(N)nc(N)c3c2C)cc(OC)c1OC (tested in a mixture with another compound) and report it.
55.2 µM

Find the recorded TGI belonging to Nc1ncnc2c1ncn2[C@@H]1C[C@@H]1CO and report it.
> 100 µM

Find the recorded TGI belonging to COc1cc2c(c(OC)c1OC)-c1ccc(SC)c(=O)cc1C(NC=O)CC2 (stereo unspecified) and report it.
> 4.64 µM

Find the recorded TGI belonging to O=c1cc(-c2cccc3ccccc23)[nH]c2ncccc12 and report it.
> 100 µM

Find the recorded TGI belonging to COc1ccc2cc(/C=N/NC(=O)Nc3ccccc3)ccc2c1 and report it.
> 100 µM

Find the recorded TGI belonging to O=C1/C(=C/c2ccccc2S)N=C(c2ccccc2)N1c1nc2c(Cl)cc(Cl)cc2s1 and report it.
80.9 µM

Find the recorded TGI belonging to O=C1OCC2=C1C(c1cccc(Br)c1)c1cc3c(cc1N2CCO)CCC3 (stereo unspecified) and report it.
1.22 µM

Find the recorded TGI belonging to O=[N+]([O-])/C(C(Cl)=C(Cl)Cl)=C(/Cl)Sc1ccccc1 and report it.
3.4 µM

Find the recorded TGI belonging to N#Cc1c(N)n(-c2cccc(C(=O)O)c2)c(=O)c2cc([N+](=O)[O-])ccc12 and report it.
> 100 µM

Find the recorded TGI belonging to COc1cc(NS(C)(=O)=O)ccc1Nc1c2ccccc2nc2c1[nH]c1ccc(NC3OC(CO)C(O)C(O)C3O)cc12 (stereo unspecified) and report it.
8.11 µM

Find the recorded TGI belonging to CN(C)C1(N(C)C)Oc2c(c(=O)n(C)c(=O)n2C)C(c2ccccc2)C1(F)F (stereo unspecified) and report it.
> 100 µM

Find the recorded TGI belonging to COC(=O)/C=C(\C)CC(O)/C=C(\C)CCC=C(C)C (stereo unspecified) and report it.
> 100 µM

Find the recorded TGI belonging to O=C1Nc2ccccc2/C1=N\[O-].O=C1Nc2ccccc2/C1=N\[O-].[Cu+2] and report it.
> 100 µM

Find the recorded TGI belonging to CN(C)CCCN1CCC2(CCC(C(C)(C)C)CC2)CC1 and report it.
3.91 µM

Find the recorded TGI belonging to CC#CCOC(=O)c1ccccc1OC(C)=O and report it.
> 100 µM

Find the recorded TGI belonging to CN1C(=O)N(C)C2C1NN=c1s/c(=C\c3ccc(Cl)cc3Cl)c(=O)n12 (stereo unspecified) and report it.
19.6 µM
